Every entry's value here was drawn from the NIST ThermoML archive (doi:10.1016/j.jct.2017.08.004).

Test: molar heat capacity at constant pressure
Settings: 320.15 K; 101.33 kPa; Crystal; Small sample (50 mg) DSC
// no (0) strictly below 200 J/K/mol in molar heat capacity at constant pressure; yes (1) otherwise

As a guide, the following entries are already answered.
> print(dat)
                                 molecule  class.name
1  OC[C@@H](O)[C@@H](O)[C@H](O)[C@H](O)CO     yes (1)
2               OC[C@@H](O)C(O)[C@H](O)CO     yes (1)
3                  OC[C@@H](O)[C@@H](O)CO      no (0)
4          OC[C@@H](O)[C@H](O)[C@@H](O)CO     yes (1)

Query string: Please check the record OC[C@H](O)C(O)[C@@H](O)CO [L-(-)-arabitol] and state if its molar heat capacity at constant pressure is at or above 200 J/K/mol.
Result string: yes (1)

Query string: Quick check, molar heat capacity at constant pressure >= 200 J/K/mol? O[C@H]1[C@H](O)[C@@H](O)[C@H](O)[C@@H](O)[C@H]1O [cis-1,2,3,5-trans-4,6-cyclohexanehexol]
Result string: yes (1)

----------
Experiment: molar heat capacity at constant pressure
Details: 35 K; 101.33 kPa; Crystal; relaxation calorimetry
Consider the following compounds and their measured molar heat capacity at constant pressure readings.
Use J/K/mol as the unit, but write only the number.

Reference set, count: 5
> print(dat)
                                   compound    val
1                 OC[C@@H](O)C(O)[C@H](O)CO  21.27
2                    OC[C@@H](O)[C@@H](O)CO  18.79
3    OC[C@@H](O)[C@@H](O)[C@H](O)[C@H](O)CO   24.4
4            OC[C@@H](O)[C@H](O)[C@@H](O)CO  19.23
5  O[C@H]1[C@H](O)[C@@H](O)[C@H](O)[C@@H](O)[C@H]1O [cis-1,2,3,5-trans-4,6-cyclohexanehexol]  19.73

Proceed to the following item.
Query string: Any idea what its molar heat capacity at constant pressure is? The compound is OC[C@H](O)C(O)[C@@H](O)CO [L-(-)-arabitol]
Result string: 21.5

----------
Assay: molar heat capacity at constant pressure
Settings: 324.15 K; 101.33 kPa; Crystal; Small sample (50 mg) DSC
ASSAY_READOUT: molar heat capacity at constant pressure (J/K/mol)
Write the value in J/K/mol as a bare number.

Take a look at these entries with their results.
> print(dat)
                                   compound  units.of.measure     val
1                 OC[C@@H](O)C(O)[C@H](O)CO           J/K/mol  223.41
2                    OC[C@@H](O)[C@@H](O)CO           J/K/mol  180.85
3            OC[C@@H](O)[C@H](O)[C@@H](O)CO           J/K/mol  231.54
4  OC[C@H](O)C(O)[C@@H](O)CO [L-(-)-arabitol]           J/K/mol  231.33
5  O[C@H]1[C@H](O)[C@@H](O)[C@H](O)[C@@H](O)[C@H]1O [cis-1,2,3,5-trans-4,6-cyclohexanehexol]           J/K/mol  241.22

Query string: Requested field: molar heat capacity at constant pressure. Item: OC[C@@H](O)[C@@H](O)[C@H](O)[C@H](O)CO
Result string: 253.84
